# method_description: chemical genetic growth profiling, strain panel (AID 1159580);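 further: tested at 20 µM; growth read once vehicle control cultures reached saturation at 30 °C; 1 = growth at the plate median or of vehicle wells; lower values mean less growth of the strain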
# conditions: S. cerevisiae deletion strains, growth OD, locus YPR163C, strain tif3, stronger effect = lower value
In all, about 5,500 compounds went through this assay and about 2,000 (36%) were called active. About 18% were inconclusive and are not listed. The list shows a part of the results.

compound	normalized growth
O=C1CN(/N=C\c2ccc([N+](=O)[O-])o2)C(=O)N1	1
CO[C@@H]1[C@@H](O[C@@H]2O[C@H](C)[C@@H](O[C@H]3C[C@@](C)(O)[C@H](O)[C@H](C)O3)[C@H](N(C)C)[C@H]2O)[C@@H](CC=O)C[C@@H](C)[C@@H](O[C@H]2CC[C@H](N(C)C)[C@@H](C)O2)/C=C/C=C/C[C@H](C)OC(=O)C[C@H]1O	1.01
CCn1cc(C(=O)O)c(=O)c2cnc(N3CCCC3)nc21	1.02
NC(=O)N/N=C\c1ccc([N+](=O)[O-])o1	0.992
CC(=O)N[C@@H]1[C@@H](C(O)[C@H](O)CO)O[C@](O)(C(=O)O)C[C@@H]1O (stereo partly specified)	1.01
CC(=O)Oc1cc(C)c2c(c1C(OC(C)=O)OC(C)=O)Oc1c(c(C)c(OC(C)=O)c3c1C(OC(C)=O)OC3=O)OC2=O (stereo unspecified)	0.974
COc1cc(C(=O)O)cc(OC)c1O	0.989
CCOC(N)=O	1.01
O=C1OCCN1/N=C\c1ccc([N+](=O)[O-])o1	0.993
COC(=O)[C@H]1[C@H]2C[C@@H]3c4[nH]c5cc(OC)ccc5c4CCN3C[C@H]2C[C@@H](OC(=O)c2cc(OC)c(OC)c(OC)c2)[C@@H]1OC	1.02
CC(Cc1ccc(O)c(O)c1)(NN)C(=O)O (stereo unspecified)	1.01
COc1ccc(-c2cc(C(F)F)nn2-c2ccc(S(N)(=O)=O)cc2)cc1F	1
O=C(O)CNCP(=O)(O)O	1.01
CC1=C(/C=C/C(C)=C/C=C/C(C)=C/CO)C(C)(C)CCC1	0.998
CC1=C(/C=C/C(C)=C/C=C/C(C)=C/C=C/C=C(C)/C=C/C=C(C)/C=C/C2=C(C)CCCC2(C)C)C(C)(C)CCC1	1
O=C(O)c1cc(=O)c(O)c2c(O)c(O)ccc2c1	1.02
CC1(C)CC2C1CCC1(C)OC2(C)CCC1O (stereo unspecified)	1.02
COc1cc(C)c2c(c1C=O)Oc1c(c(C)c(O)c3c1C(O)OC3=O)OC2=O (stereo unspecified)	1
CC(=O)OC/C=C(C)/C=C/C=C(C)/C=C/C1=C(C)CCCC1(C)C	0.994
c1ccc2[nH]c(-c3cscn3)nc2c1	1
OC/C=C/c1ccc(O)c(O)c1	0.973
C[C@](N)(Cc1ccc(O)c(O)c1)C(=O)O	1
C[C@@H]1CC2C3CCC4=CC(=O)C=C[C@]4(C)[C@@]3(F)[C@@H](O)C[C@]2(C)[C@@]1(O)C(=O)COP(=O)(O)O (stereo partly specified)	0.995
CCCN(CCC)C(=O)C(CCC(=O)O)NC(=O)c1ccccc1 (stereo unspecified)	0.977
Cc1ccc(C(C)C)cc2c(C)ccc1-2	1.04
COc1c(C(=O)O)ccc2c1CCC(C)(C)O2	0.986
CC12CCCC(O)(C1)C1CC(C)(C)C1CC2 (stereo unspecified)	1.02
COc1ccccc1-c1cc(=O)c2c(OC)cccc2o1	0.964
NCCCCN=C(N)N	0.975
CC[C@@H](C(=O)[C@@H](C)[C@@H](O)[C@H](C)[C@@H]1O[C@@H]([C@@H](CC)C(=O)O)CC[C@@H]1C)[C@H]1OC2(C=C[C@@H](O)[C@]3(CC[C@@](C)([C@H]4CC[C@](O)(CC)[C@H](C)O4)O3)O2)[C@H](C)C[C@@H]1C (stereo partly specified)	0.538
O=C(O)c1cc(O)c(O)c(O)c1	1.03

###

# method_description: chemical genetic growth profiling, strain panel (AID 1159580);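 further: tested at 20 µM; growth read once vehicle control cultures reached saturation at 30 °C; 1 = growth at the plate median or of vehicle wells; lower values mean less growth of the strain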
# conditions: S. cerevisiae deletion strains, growth OD, locus YLR418C, strain cdc73, stronger effect = lower value
Among all 5,500 compounds or so, about 2,000 (36%) were called active. Roughly 18% stayed inconclusive and do not appear here. This is one part of the list.
quantity_measured: normalized growth

In [3]: df
Out[3]:
                                   compound  value_measured
0  Cc1cccc(CN2CCN(C(c3ccccc3)c3ccc(Cl)cc3)CC2)c1 (stereo not given)           0.365
1       C[C@@]12C(=O)OC(=O)[C@]1(C)C1CCC2O1           0.949
2  c1cc2c(cc1[C@H]1OC[C@H]3[C@@H]1CO[C@H]3c1ccc3c(c1)OCO3)OCO2           0.692
3  O=C(O)CCCCCCCCCCCCC1C=CCC1 (stereo not given)           0.632
4                     CC12CCC(CC1)C(C)(C)O2            1.05

###

# method_description: chemical genetic growth profiling, strain panel (AID 1159580);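 further: tested at 20 µM; growth read once vehicle control cultures reached saturation at 30 °C; 1 = growth at the plate median or of vehicle wells; lower values mean less growth of the strain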
# conditions: S. cerevisiae deletion strains, growth OD, locus YLR342W, strain FKS1, stronger effect = lower value
The whole screen tested about 5,500 compounds, of which about 2,000 (36%) were called active. Roughly 18% stayed inconclusive and do not appear here. This is one part of the list.
// values below are reported normalized growth
quantity_measured: normalized growth

                                   molecule  value_measured
0  O=C(O)c1cc(=O)c2c(OCC(O)COc3cccc4oc(C(=O)O)cc(=O)c34)cccc2o1            0.95
1  CC1(C)CC2C1CCC1(C)OC1CCC2(C)O (stereo not given)            1.05
2  C[C@H](COc1ccccc1)N[C@H](C)[C@H](O)c1ccc(O)cc1           0.997
3  C[C@]12CCC3c4ccc(OS(=O)(=O)O)cc4CCC3C1CCC2=O (stereo not given in full)           0.971
4  C#C[C@]1(O)CCC2C3CCc4cc(OC)ccc4C3CC[C@@]21C (stereo not given in full)           0.952

###

# method_description: chemical genetic growth profiling, strain panel (AID 1159580);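 further: tested at 20 µM; growth read once vehicle control cultures reached saturation at 30 °C; 1 = growth at the plate median or of vehicle wells; lower values mean less growth of the strain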
# conditions: S. cerevisiae deletion strains, growth OD, locus YAL013W, strain DEP1, stronger effect = lower value
In all, about 5,500 compounds went through this assay and about 2,000 (36%) were called active. About 18% were inconclusive and are not listed. This is one part of the list.
molecules and their reported normalized growth
quantity_measured: normalized growth

                                    molecule  quantity_measured  value_measured
 0              N#Cc1c(-c2ccccc2)no[n+]1[O-]  normalized growth           0.942
 1                CS(=O)(=O)OCCCCOS(C)(=O)=O  normalized growth           0.954
 2              C/C(=N/NC1=NCCN1)c1ccc(F)cc1  normalized growth            1.01
 3  CCCCCCCC1CC/C(=C\c2ccc(/C=C3\CCC(CCCCCCC)C3=O)cc2)C1=O (stereo unspecified)  normalized growth            1.01
 4  CN1CCc2cccc3c2C1Cc1ccc(O)c(O)c1-3 (stereo unspecified)  normalized growth            1.01
 5               CC(C)(O)C#Cc1ccc(/C=N\O)cc1  normalized growth            1.01
 6              O=C(Nc1ccc(Cl)cc1Cl)c1cnccn1  normalized growth           0.943
 7                     CC12CCC(CC1)C(C)(C)O2  normalized growth               1
 8  COc1cc2c3cc1Oc1cc(ccc1O)OC1c4c(cc(OC)c(O)c4Oc4ccc(cc4)CC3N(C)CC2)CCN1C (stereo unspecified)  normalized growth           0.992
 9  COC(=O)[C@H]1[C@H]2C[C@@H]3c4[nH]c5cc(OC)ccc5c4CCN3C[C@H]2C[C@@H](OC(=O)c2cc(OC)c(OC)c(OC)c2)[C@@H]1OC  normalized growth           0.994
10  OC1CCCCC1N1CCC(c2ccccc2)CC1 (stereo unspecified)  normalized growth           0.998
11        O=C(CCCCCCCCC(=O)c1ccccc1)c1ccccc1  normalized growth           0.996
12  O=C1CN(/N=C\c2ccc([N+](=O)[O-])o2)C(=O)N1  normalized growth           0.993
13     C/C(=N/OC(=O)c1ccc(Cl)cc1)c1ccc(F)cc1  normalized growth           0.946
14  C[C@@H]1C[C@@H]([C@H](O)CC2CC(=O)NC(=O)C2)C(=O)[C@@H](C)C1  normalized growth          0.0595
15  CC1Cc2cc3c(cc2C(c2ccc(N)cc2)=NN1)OCO3 (stereo unspecified)  normalized growth           0.958
16  C=CC1=C(C)/C(=C/c2[nH]c(Cc3[nH]c(/C=C4\NC(=O)C(C)=C4C=C)c(C)c3CCC(=O)O)c(CCC(=O)O)c2C)NC1=O  normalized growth            1.02
17  O=C1c2cccc3c(SCCO)ccc(c23)C(=O)N1CCc1ccccn1  normalized growth           0.999
18  Cc1ccc(-n2nc(-c3ccc(OC(F)(F)F)cc3)cc2NC(=O)Nc2ccc(OC(F)(F)F)cc2)cc1C  normalized growth               1
19  COC(=O)c1cc(OC)c(OC)cc1NS(=O)(=O)c1ccc(C)cc1  normalized growth            1.01
20         CCOC(=O)Nc1ccc(NCc2ccc(F)cc2)nc1N  normalized growth            1.02
